# targetDesc: HLA-A*0202 (human)
# test: competition with 125I-labelled standard peptide for purified HLA
# measurementSetup: remark: other sources report otherwise
pIC50: −log10 of the molar value.
readoutKind: pIC50

A. VLAGGFFLL [peptide 1126.10, PSM.27]
B. ALFDIESKV [peptide 1129.08, PSM.711]
[Q] # min-compare on pIC50 between A and B Indicate your choice by writing its label.
[A] B
